assay: Solubility measurement (DMSO solution method), McIlvaine buffer pH 4.5 or 6.8; format: physicochemical; conditions: aqueous buffer, kinetic from dmso stock; McIlvaine buffer pH 4.5; DMSO stock diluted to 250 μM; 24 h shaking at ambient temperature; read-out: solubility pH 4.5
// values below are reported solubility at 24 h

Example cases with answers are listed next.
C[C@H](Oc1cc(-n2ccc(C(=O)N3CCCC3)n2)nc(-c2noc3c2CCC[C@@]32CCCc3sc(N)c(C#N)c32)n1)[C@@H]1CCCN1C
89 µg/mL
CNC1CCN(c2cc(O[C@@H](C)[C@@H]3CCCN3C)nc(-c3noc4c3CCC[C@@]43CCCc4sc(N)c(C#N)c43)n2)CC1
> 121 µg/mL
CO[C@H]1CCN(C)[C@@H]1[C@H](C)Oc1cc(-n2ccc(C(=O)N[C@H]3CCOC3)n2)nc(-c2onc3c2CCC[C@@]32CCCc3sc(N)c(C#N)c32)n1
16 µg/mL
C[C@H](Oc1cc(-c2cnn(C)c2)nc(-c2noc3c2CCC[C@@]32CCCc3sc(N)c(C#N)c32)n1)[C@@H]1CCCN1C
57 µg/mL
C[C@H](Oc1cc(-n2cncc3ccnc2-3)nc(-c2onc3c2CCC[C@@]32CCCc3sc(N)c(C#N)c32)n1)[C@@H]1CCCN1C
41 µg/mL

Value of solubility at 24 h reported for the compound C[C@H](Oc1cc(-n2ccc(-c3cn([C@@H]4CCOC4)nn3)n2)nc(-c2noc3c2CCC[C@@]32CCCc3sc(N)c(C#N)c32)n1)[C@@H]1CCCN1C is 20 µg/mL
